# test-method-notes: Inhibition of Pseudomonas aeruginosa PA3774 using Boc-Lys(trifluoroacetyl)-AMC as substrate preincubated for 30 mins followed by substrate addition measured after 60 mins by trypsin-based fluorescence assay
quantity-kind: Ki (nM)
Please state the figure in nM; there is no need to write the unit.

entry_smiles=Cc1cccc(NC(=O)C(F)(F)C(F)(F)C(F)(F)C(F)(F)C(F)(F)C(F)(F)C(=O)NO)c1 endpoint_value=92

*Q* Which Ki value is on record for O=C(NO)C(F)(F)C(F)(F)C(F)(F)C(F)(F)C(F)(F)C(F)(F)C(=O)Nc1cccc(Cl)c1 ?
*A* 46

*Q* One more molecule: COc1ccc(NC(=O)C(F)(F)C(F)(F)C(F)(F)C(F)(F)C(F)(F)C(F)(F)C(=O)NO)cc1
*A* 1200

*Q* One more molecule: O=C(NO)C(F)(F)C(F)(F)C(F)(F)C(F)(F)C(F)(F)C(F)(F)C(=O)Nc1ccc(-c2cnnn2-c2ccccc2)cc1
*A* 3100

*Q* One more molecule: N#Cc1ccc(NC(=O)C(F)(F)C(F)(F)C(F)(F)C(F)(F)C(F)(F)C(F)(F)C(=O)NO)cc1
*A* 320

*Q* One more molecule: Cc1ccccc1NC(=O)C(F)(F)C(F)(F)C(F)(F)C(F)(F)C(F)(F)C(F)(F)C(=O)NO
*A* 160
